test: inhibitors of E-selectin induction by TNFa, primary screen, imaging, HUVEC, immunofluorescence, MLSMR starter and 10KST1 sets (AID 487); settings: HUVEC TNFalpha-induced E-selectin immunofluorescence imaging, at 2 µM; measured here: cell number, toxicity;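 also: 100% = median nuclei count of all wells on the same plate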
Quick reference: nuclei count of the listed items.

[
  {
    "Compound": "Cn1c(Cn2cnc3ccccc32)nc2ccccc21",
    "U": "%",
    "nuclei count": 78.7
  },
  {
    "Compound": "CCOC(=O)Cn1c(=O)c(-c2ccccc2N)nc2ccccc21",
    "U": "%",
    "nuclei count": 116
  },
  {
    "Compound": "COc1ccc(S(=O)(=O)Nc2ccccc2OC)cc1C",
    "U": "%",
    "nuclei count": 110
  },
  {
    "Compound": "O=C(O)c1cc2sccc2s1",
    "U": "%",
    "nuclei count": 160
  },
  {
    "Compound": "Cc1ccc(S(=O)(=O)NC(=O)Nc2ncc3c(n2)CC(c2ccco2)CC3=O)cc1 (stereo unspecified)",
    "U": "%",
    "nuclei count": 89.6
  },
  {
    "Compound": "c1ccc2ncc(-n3cnnn3)cc2c1",
    "U": "%",
    "nuclei count": 117
  },
  {
    "Compound": "CCOc1ccc(NC(=O)CSC2=C(C#N)C(c3ccc4c(c3)OCO4)CC(=O)N2)cc1 (stereo unspecified)",
    "U": "%",
    "nuclei count": 140
  },
  {
    "Compound": "CC1(C)Cc2nc3sc4c(N(CCO)CCO)ncnc4c3cc2CO1",
    "U": "%",
    "nuclei count": 82.1
  },
  {
    "Compound": "CCN(c1ccc2c(c1)OCO2)S(=O)(=O)c1cc(Br)cc2c1N(C(=O)C1CC1)CC2",
    "U": "%",
    "nuclei count": 147
  },
  {
    "Compound": "CCN(CC)CCn1c(=N)n(CCO)c2ccccc21",
    "U": "%",
    "nuclei count": 91.5
  },
  {
    "Compound": "Cc1ccc(C(=O)/C=C/Nc2ccccn2)cc1",
    "U": "%",
    "nuclei count": 104
  },
  {
    "Compound": "Cc1ccc(NC(=O)C2CCCN(S(=O)(=O)c3cnc[nH]3)C2)c(Br)c1 (stereo unspecified)",
    "U": "%",
    "nuclei count": 108
  },
  {
    "Compound": "C/C(NC(=O)c1cccs1)=C1\\C(=O)C[C@@H]2[C@H]1C2(C)C",
    "U": "%",
    "nuclei count": 150
  },
  {
    "Compound": "Cc1nnc(SCC(=O)Nc2sc3c(c2C#N)CCCC3)[nH]c1=O",
    "U": "%",
    "nuclei count": 108
  },
  {
    "Compound": "CCOC(=O)c1cccnc1SCC(=O)NC(C)CC (stereo unspecified)",
    "U": "%",
    "nuclei count": 119
  },
  {
    "Compound": "CCCCCCOc1ccc(N2C(=O)CC(N3CCN(C(=O)c4ccco4)CC3)C2=O)cc1 (stereo unspecified)",
    "U": "%",
    "nuclei count": 150
  },
  {
    "Compound": "O=C(CS(=O)CC(=O)Nc1cccc2c1CCCC2)Nc1ccc(F)cc1 (stereo unspecified)",
    "U": "%",
    "nuclei count": 80.2
  },
  {
    "Compound": "COc1ccc(N2C(N)=C(C#N)C(c3cccnc3)C3=C2CC(C)(C)CC3=O)cc1 (stereo unspecified)",
    "U": "%",
    "nuclei count": 104
  },
  {
    "Compound": "CCOC(=O)C(NC(C)=O)(Nc1ccc(S(=O)(=O)Nc2nccs2)cc1)C(F)(F)F (stereo unspecified)",
    "U": "%",
    "nuclei count": 95.9
  },
  {
    "Compound": "CC(NC(=O)C1CCCN(S(=O)(=O)c2cccs2)C1)c1ccccc1 (stereo unspecified)",
    "U": "%",
    "nuclei count": 112
  },
  {
    "Compound": "CN(C)c1ccc(-c2nn3c(-c4ccc(Cl)cc4Cl)nnc3s2)cc1",
    "U": "%",
    "nuclei count": 96.6
  },
  {
    "Compound": "COC(=O)c1cc(-c2c(C)oc3cc(O)ccc3c2=O)c(C)o1",
    "U": "%",
    "nuclei count": 167
  },
  {
    "Compound": "CSc1nc(C)c(C(=O)Nc2ccccc2)c(C)c1C#N",
    "U": "%",
    "nuclei count": 118
  },
  {
    "Compound": "COc1cc(OC)c2c(c1)OC(c1ccc(OC)c(OC)c1)C(O)C2=O (stereo unspecified)",
    "U": "%",
    "nuclei count": 115
  },
  {
    "Compound": "O=C1C2ON(c3ccccc3)C(c3cccnc3)C2C(=O)N1Cc1ccccc1 (stereo unspecified)",
    "U": "%",
    "nuclei count": 177
  },
  {
    "Compound": "CC1(C)CCN(Cc2ccccc2)C1CC#N (stereo unspecified)",
    "U": "%",
    "nuclei count": 134
  },
  {
    "Compound": "Nc1nnc(C(=O)c2ccccc2N)s1",
    "U": "%",
    "nuclei count": 106
  },
  {
    "Compound": "Cc1cccc(NC(=O)c2cc(NC(=O)c3ccco3)ccc2Cl)n1",
    "U": "%",
    "nuclei count": 98
  },
  {
    "Compound": "C[n+]1cccc(CNC(=O)/C=N/O)c1",
    "U": "%",
    "nuclei count": 158
  },
  {
    "Compound": "COc1cccc(C=NCCNC(=O)c2nonc2N)c1O",
    "U": "%",
    "nuclei count": 169
  },
  {
    "Compound": "CC1CCc2nn(CC(=O)NCCN3CCOCC3)cc2C1 (stereo unspecified)",
    "U": "%",
    "nuclei count": 97
  },
  {
    "Compound": "O=C1c2ccccc2C(=O)N1CC1c2ccccc2CCN1C(=O)N1CCOCC1 (stereo unspecified)",
    "U": "%",
    "nuclei count": 202
  },
  {
    "Compound": "CCOC(=O)N1CCC(NC(=O)CS(=O)(=O)Cc2nc(-c3ccccc3C)oc2C)CC1",
    "U": "%",
    "nuclei count": 119
  },
  {
    "Compound": "CCC1SC2=NC(C)=C(C(=O)OCCOC)C(c3ccc(C(=O)OC)cc3)N2C1=O (stereo unspecified)",
    "U": "%",
    "nuclei count": 154
  },
  {
    "Compound": "N#Cc1c2c(c(-c3ccccc3)[nH]c1=O)CCCC2",
    "U": "%",
    "nuclei count": 140
  },
  {
    "Compound": "O=C(/C=C1\\NC2(CCCC2)Cc2ccccc21)N1CCOCC1",
    "U": "%",
    "nuclei count": 134
  },
  {
    "Compound": "Nc1nonc1N1CCCCC1",
    "U": "%",
    "nuclei count": 104
  },
  {
    "Compound": "CN(C)S(=O)(=O)NC(c1ccccc1)c1ccccc1",
    "U": "%",
    "nuclei count": 99.9
  },
  {
    "Compound": "Cc1ccc(S(=O)(=O)NC(C)C(=O)Nc2ccc(C(N)=O)cc2)cc1 (stereo unspecified)",
    "U": "%",
    "nuclei count": 105
  },
  {
    "Compound": "Cc1ccc(C(=O)C2C(c3cccs3)NC(=O)NC2(O)C(F)(F)F)cc1 (stereo unspecified)",
    "U": "%",
    "nuclei count": 142
  },
  {
    "Compound": "CC1(C)Cc2c(C#N)c(SCC(=O)c3ccccc3)nc(N3CCOCC3)c2CS1",
    "U": "%",
    "nuclei count": 93.2
  },
  {
    "Compound": "CN(C)CCCN1C(=O)CSC1c1ccccc1 (stereo unspecified)",
    "U": "%",
    "nuclei count": 104
  },
  {
    "Compound": "CCOC(=O)C1=C(N)n2c(s/c(=C\\c3ccco3)c2=O)=C(C(=O)OC(C)C)C1c1ccco1 (stereo unspecified)",
    "U": "%",
    "nuclei count": 166
  },
  {
    "Compound": "O=C(c1ccco1)N1CCN(c2ccc(Cl)cc2)CC1",
    "U": "%",
    "nuclei count": 93
  },
  {
    "Compound": "CCOc1cccc(OCCCCn2ccnc2)c1",
    "U": "%",
    "nuclei count": 114
  },
  {
    "Compound": "Cc1ccc2cc(CN(Cc3ccc4c(c3)OCO4)Cc3nnnn3Cc3ccco3)c(=O)[nH]c2c1C",
    "U": "%",
    "nuclei count": 109
  }
]
